# test_target: Mannose-6-phosphate isomerase (Homo sapiens) (UniProt P34949)
# Sequence (P34949 whole entry, looked up): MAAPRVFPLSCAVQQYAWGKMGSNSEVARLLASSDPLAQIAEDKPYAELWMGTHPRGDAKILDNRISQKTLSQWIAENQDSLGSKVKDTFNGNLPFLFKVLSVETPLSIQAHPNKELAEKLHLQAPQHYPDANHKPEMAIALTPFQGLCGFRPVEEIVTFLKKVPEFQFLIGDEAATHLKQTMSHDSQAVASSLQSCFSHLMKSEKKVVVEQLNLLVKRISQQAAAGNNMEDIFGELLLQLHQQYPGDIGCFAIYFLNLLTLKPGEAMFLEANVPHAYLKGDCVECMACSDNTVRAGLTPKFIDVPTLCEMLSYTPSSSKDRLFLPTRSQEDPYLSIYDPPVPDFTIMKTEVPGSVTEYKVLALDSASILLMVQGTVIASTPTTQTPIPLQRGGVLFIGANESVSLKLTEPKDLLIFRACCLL
# protocol_description: inhibitors of human PMI, primary screen, biochemical, fluorescence intensity, coupled assay (AID 1209);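 further: plate controls were DMSO vehicle for no effect and wells lacking substrate for full effect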
# applied_conditions: purified PMI enzyme, at 20 µM, hits give high values
About 810 (0.43%) of roughly 190,000 compounds were called active. This excerpt belongs to a sample that is enriched for actives.
value_kind: inhibition

compound=CCn1nc(/C=C/c2ccccc2)nc2c(=O)n(C)c(=O)nc1-2 value_kind=inhibition result="39.7% (inactive)"
compound="COc1cc(CN2CC3CC(C2)c2cccc(=O)n2C3)cc(OC)c1OC (stereo not drawn)" value_kind=inhibition result="-1.2% (inactive)"
compound="COc1cccc(N2C(=O)NC(=O)C3(Cc4cc(C)ccc4N(C)C3)C2=O)c1 (stereo not drawn)" value_kind=inhibition result="-37% (inactive)"
compound="COC(=O)N(c1ccc(OC)cc1)P1(=S)OCCC(C)O1 (stereo not drawn)" value_kind=inhibition result="62.3% (active)"
compound=COc1ccc(C2=NCC(=O)N(CC(=O)NCc3ccco3)c3sc4c(c32)CCCC4)cc1 value_kind=inhibition result="4.5% (inactive)"
compound=Cc1cc(Oc2ccc(C(F)(F)F)cc2[N+](=O)[O-])c2c3c(c(=O)oc2c1)CCC3 value_kind=inhibition result="-1.9% (inactive)"
compound=COC(=O)N(c1ccccc1)P1(=S)OCCO1 value_kind=inhibition result="24.3% (inactive)"
compound="O=C(C1CCCO1)N1CCC2(CC1)OCCO2 (stereo not drawn)" value_kind=inhibition result="5.3% (inactive)"
compound=Oc1ccc(/C=N/NP(=S)(c2ccccc2)c2ccccc2)c(O)c1O value_kind=inhibition result="62.4% (active)"
compound=O=C1NC(=S)N(c2ccc(Br)cc2)C(=O)/C1=C/N1CCN(C(=O)c2ccco2)CC1 value_kind=inhibition result="25.8% (inactive)"
compound=O=C1CC(=O)N(c2cccc(Cl)c2)C(=O)N1 value_kind=inhibition result="0.2% (inactive)"
compound=Oc1ccccc1/C=N/NP(=S)(c1ccccc1)c1ccccc1 value_kind=inhibition result="6.9% (inactive)"
compound="CCOC(=O)C1C(=O)N(C)C2(C)CC1c1cc(OC)ccc1O2 (stereo not drawn)" value_kind=inhibition result="-7% (inactive)"
compound=Oc1ccc(/C=N/NP(=S)(c2ccccc2)c2ccccc2)cc1 value_kind=inhibition result="14.9% (inactive)"
compound=Nc1ccc(Cl)cc1C(=O)c1ccccc1Cl value_kind=inhibition result="5.4% (inactive)"
compound=CCn1nc(-c2cccs2)nc2c(=O)n(C)c(=O)nc1-2 value_kind=inhibition result="6.3% (inactive)"
compound=O=c1c(/C=N/N2CCOCC2)c(O)n(-c2ccccc2)c(=S)n1-c1ccccc1 value_kind=inhibition result="4.6% (inactive)"
compound="CCOC(=O)N(c1ccccc1)P1(=S)OCC(C)O1 (stereo not drawn)" value_kind=inhibition result="-1.5% (inactive)"
compound="CNC(C(=O)c1ccccc1)C(OC)c1ccc(C)cc1 (stereo not drawn)" value_kind=inhibition result="-37.6% (inactive)"
compound="CC1CC(OP(O)(=S)c2ccc(N(C)C)cc2NC(=O)c2cccs2)CC(C)(C)C1 (stereo not drawn)" value_kind=inhibition result="59.7% (active)"
compound=Cc1nc2c(=O)n(C)c(=O)nc-2n(C)n1 value_kind=inhibition result="73.6% (active)"
compound=COc1cc2c(cc1O)C[C@H]1NCCc3cc4c(c-2c31)OCO4 value_kind=inhibition result="6.6% (inactive)"
compound=O=C(CNC(=O)c1cccc(Cl)c1)Nc1ccc(Br)cc1C(=O)c1ccccc1 value_kind=inhibition result="17.1% (inactive)"
